Data origin: PubChem BioAssay AID1996

Conditions: buffer; pH 7.4; 200.0 µM
Each entry gets 0 (no) if its solubility kinetic stays under 30 µg/mL, and 1 (yes) if its solubility kinetic is 30 µg/mL or above.

Please review the following examples before continuing.
compound	assignedCategory
CN1C(=O)c2ccc(C(=O)Nc3cccnc3)cc2C1=O	1 (yes)
CC(C)OCCCNC1=C(Cl)C(=O)c2ccccc2C1=O	1 (yes)
CCCNc1nc2ccccc2c(=O)[nH]1	1 (yes)
Nc1ccc(NC(=O)CCN2CCOCC2)cc1	1 (yes)
O=C(c1ccco1)c1cn(CC(=O)N2CCCC2)c2ccccc12	1 (yes)
COc1ccc(NC(=O)CN(C)C(=O)C2(c3ccccc3)CCCC2)cc1	1 (yes)
CN(C)/C=C(\C#N)C(=O)Nc1ccc(F)c(Cl)c1	0 (no)
COC(=O)c1sccc1NC(=O)c1cccc(F)c1	0 (no)

Could you please find out whether COc1ccccc1N1CCN(c2cnccn2)CC1 has solubility kinetic that meets 30 µg/mL or exceeds it? 1 (yes)

Could you please find out whether COC(=O)CNc1nc(Cl)nc(NC2CCCCC2)n1 has solubility kinetic that meets 30 µg/mL or exceeds it? 0 (no)

* * *

The following compounds are shown together with reported log10 of solubility kinetic values.
Details: buffer; pH 7.4; 200.0 µM
Note the log scale: values are log10 of solubility kinetic expressed in µg/mL.

Solved entries (count: 5):
compound	log10 of solubility kinetic
COc1ccccc1C(=O)Nc1cccc2nc(C)ccc12	1.59
Cc1cc(C(=O)CSc2nc(N)cc(=O)[nH]2)ccc1F	1.51
CCCC(=O)C1=C(N2CCCC2)CC(C)(C)C(C(=O)OC)C1=O (stereo unspecified)	1.65
COCC1CCN(Cc2nc(COc3ccccc3)no2)C1 (stereo unspecified)	1.57
CN=C1S/C(=C\c2ccc(Cl)cc2)C(=O)N1C	0.08

Complete the entry with log10 of solubility kinetic for CC1CC(C)CN(CC(=O)c2cccs2)C1 (stereo unspecified) 1.49

Complete the entry with log10 of solubility kinetic for CN(C)[C@@H]1C(=O)C(C(N)=O)=C(O)[C@@]2(O)C(=O)C3=C(O)c4c(O)cccc4[C@@](C)(O)C3[C@H](O)C12.Cl (stereo partly specified) 1.85

Complete the entry with log10 of solubility kinetic for COc1cc(OC)cc(C(=O)NCCOC23CC4CC(CC(C4)C2)C3)c1 1.50

* * *

Settings: buffer; pH 7.4; 200.0 µM
The following compounds are shown together with reported solubility kinetic values.

compound	assayValue
COc1ccc(NCc2nc3ccccc3n2C)cc1	35 µg/mL
CC(=O)C1=C(C)NC2=C(C(=O)CC(C)(C)C2)C1C (configuration not stated)	> 37.1 µg/mL
CCOC(=O)N1CCC2(CC1)C(C#N)=C(N)OC1=C2C(=O)CCC1	> 49.7 µg/mL
CCc1ccc(N2CC(C(=O)N3CCCCCC3)CC2=O)cc1 (configuration not stated)	> 47.2 µg/mL
COc1ccc(CC(=O)Nc2c(C(N)=O)oc3ccccc23)cc1	1.6 µg/mL

Lab note: next compound to report on.
Complete the entry with solubility kinetic for COc1ccccc1NC(=O)COc1ccccc1C(=O)Nc1ccccc1 5.9 µg/mL

* * *

Details: buffer; pH 7.4; 200.0 µM
reportedEndpoint: solubility kinetic (µg/mL)
Just the number in µg/mL, nothing appended.

Solved entries (count: 3):
compound	unitsSymbol	solubility kinetic
O=C1c2cccc3cc([N+](=O)[O-])cc(c23)C(=O)N1CC1CCCO1 (configuration not stated)	µg/mL	5.7
O=C(CCNC(=O)c1ccco1)Nc1ccc(C(F)(F)F)cc1	µg/mL	23.4
O=C(NS(=O)(=O)c1ccc(Cl)cc1)c1ccccc1	µg/mL	26.7

Complete the entry with solubility kinetic for CC(Oc1ccc(Cl)cc1)C(=O)Nc1ccccc1N1CCOCC1 (configuration not stated) 10.1

Complete the entry with solubility kinetic for COCCn1c(SCC(=O)Nc2ccc3[nH]c(=O)[nH]c3c2)nc2ccccc21 19.4

Complete the entry with solubility kinetic for Cc1ccc(N2C(=O)c3cccc([N+](=O)[O-])c3C2=O)cc1C 23.3

Complete the entry with solubility kinetic for Cc1ccnc(NC(=O)c2cccc3ccccc23)c1 6.1

Complete the entry with solubility kinetic for CCC(Oc1ccccc1F)C(=O)Nc1ccc2c(c1)n(C)c(=O)n2C (configuration not stated) 49

* * *

Conditions: buffer; pH 7.4; 200.0 µM
The following molecules are shown together with reported solubility kinetic values.
Just the number in µg/mL, nothing appended.

Complete the entry with solubility kinetic for Cc1ccsc1C(=O)NCCc1ccc(S(N)(=O)=O)cc1 32.8

Complete the entry with solubility kinetic for O=C(CNC(=O)c1ccccc1F)OCC(=O)c1c[nH]c2ccccc12 43

Complete the entry with solubility kinetic for O=C(Cn1c(=O)oc2ccccc21)Nc1ccc(F)cc1 21.8

* * *

The following compounds are shown together with reported solubility kinetic values.
Details: buffer; pH 7.4; 200.0 µM
Just the number in µg/mL, nothing appended.

Solved entries (count: 5):
compound	assayValue
O=C(Nc1ccccc1)c1ccccc1NC(=O)c1ccccc1[N+](=O)[O-]	7.5
Cc1cc(NC(=O)CSc2nc3ccccc3n2CCC#N)no1	7.7
COc1ccc(-c2noc(CCC(=O)NCc3ccco3)n2)cc1	39.7
OCCC1CN(C2CCC2)CCN1Cc1ccc(F)c(F)c1 (stereo unspecified)	43
O=c1ccnc(SCCc2ccc([N+](=O)[O-])cc2)[nH]1	21.6

Complete the entry with solubility kinetic for C=CCNC(=O)C1CC1(c1ccc(C)cc1)c1ccc(C)cc1 (stereo unspecified) 30.6

Complete the entry with solubility kinetic for CC(=O)N1CCN(c2ccccc2NC(=O)COc2ccccc2C)CC1 49.7

Complete the entry with solubility kinetic for CC(C)n1c(Oc2ccc(F)cc2)nc2c1c(=O)n(C)c(=O)n2C 8.1

* * *

Conditions: buffer; pH 7.4; 200.0 µM
reportedEndpoint: solubility kinetic (mg/mL)
Just the number in mg/mL, nothing appended.

Solved entries (count: 6):
molecule	unitsSymbol	solubility kinetic
CC(C)NC(=O)COc1cccc2ccccc12	mg/mL	0.0318
Cc1nc2c(C)cccc2c2c1CCN2c1ccccc1F	mg/mL	0.0333
COc1ccc(OCC(=O)C2CC2)c(C#N)c1	mg/mL	0.0275
CN(C)c1ccc(C2CC(=O)C=C(Nc3ccccc3N)C2)cc1 (configuration not stated)	mg/mL	0.0482
COc1ccc(CC(=O)N2CCc3ccccc3C2)cc1	mg/mL	0.0396
CN(C)CC#CCC(O)(c1ccccc1)C1CCCCC1 (configuration not stated)	mg/mL	0.0427

Lab note: next molecule to report on.
Complete the entry with solubility kinetic for CC(C)CCNC(=O)Cc1csc(-c2ccccc2)n1 0.0414

* * *

Conditions: buffer; pH 7.4; 200.0 µM
The following compounds are shown together with reported solubility kinetic values.
Just the number in µg/mL, nothing appended.

Solved entries (count: 2):
compound	solubility kinetic, µg/mL
Cc1ccccc1NC(=O)c1cccc(S(=O)(=O)Nc2cccc(C(=O)O)c2)c1	34.6
CCCCCCNC1=NCCS1	22.9

Lab note: next compound to report on.
Complete the entry with solubility kinetic for COc1ccc(CCN2C(=O)CC(C(N)=O)SC2=Nc2ccccc2)cc1 (configuration not stated) 44.5

* * *

Conditions: buffer; pH 7.4; 200.0 µM
Each entry gets Not fulfilled if its solubility kinetic stays under 40 µg/mL, and Fulfilled if its solubility kinetic is 40 µg/mL or above.

molecule	assignedCategory
CC(C)CN(C(=O)C1CCCCC1)C1CCS(=O)(=O)C1 (stereo not given)	Fulfilled

Could you please find out whether Cc1ccc(C(=O)OCC(=O)N(C)c2ccccc2)cc1C has solubility kinetic that meets 40 µg/mL or exceeds it? Fulfilled

Could you please find out whether O=C(COC(=O)CCC(=O)c1ccc(F)cc1)NCc1ccco1 has solubility kinetic that meets 40 µg/mL or exceeds it? Fulfilled

Could you please find out whether Nc1nc(COC(=O)c2ccc3c(c2)OCCO3)nc(Nc2ccccc2)n1 has solubility kinetic that meets 40 µg/mL or exceeds it? Not fulfilled

Could you please find out whether Cc1cccc(C)c1NC(=O)c1cnn(-c2ccccc2)c1C has solubility kinetic that meets 40 µg/mL or exceeds it? Fulfilled

Could you please find out whether Cc1c(C(=O)Nc2nccs2)oc2ccc(Br)cc12 has solubility kinetic that meets 40 µg/mL or exceeds it? Not fulfilled

Could you please find out whether CCOC(=O)c1ccc(NC(=O)C2CC3CCC2C3)cc1 (stereo not given) has solubility kinetic that meets 40 µg/mL or exceeds it? Not fulfilled

Could you please find out whether COc1ccc(-c2nc3ncccc3o2)cc1NC(=O)c1ccco1 has solubility kinetic that meets 40 µg/mL or exceeds it? Not fulfilled

Could you please find out whether COc1ccccc1OCCC(=O)OCC(=O)Nc1ccc2c(c1)OCCO2 has solubility kinetic that meets 40 µg/mL or exceeds it? Fulfilled

Could you please find out whether CCOc1ccc2ccccc2c1C(=O)N[C@@H]1C(=O)N2[C@@H]1SC(C)(C)[C@@H]2C(=O)[O-].[Na+] has solubility kinetic that meets 40 µg/mL or exceeds it? Fulfilled

Could you please find out whether CC(=O)CN1C(=O)NC2(CCCc3ccccc32)C1=O (stereo not given) has solubility kinetic that meets 40 µg/mL or exceeds it? Fulfilled

Could you please find out whether O=C(CCc1ccccc1)NCCc1ccc(F)cc1 has solubility kinetic that meets 40 µg/mL or exceeds it? Not fulfilled

Could you please find out whether CCOc1ccc(/C=C/c2nc(C#N)c(NCCCN(C)C)o2)cc1 has solubility kinetic that meets 40 µg/mL or exceeds it? Fulfilled

Could you please find out whether CC(C)(C)C(=O)NC1CC2CCCC(C1)N2C(=O)Nc1ccccc1F (stereo not given) has solubility kinetic that meets 40 µg/mL or exceeds it? Not fulfilled

Could you please find out whether Cc1ccc(S(=O)(=O)N2CCCC2)s1 has solubility kinetic that meets 40 µg/mL or exceeds it? Not fulfilled

Could you please find out whether CC1C(=O)Nc2ccccc2N1C(=O)c1ccc(Cl)c(Cl)c1 (stereo not given) has solubility kinetic that meets 40 µg/mL or exceeds it? Not fulfilled

Could you please find out whether CCn1c(/C=C/c2ccccc2C)nc2ccccc2c1=O has solubility kinetic that meets 40 µg/mL or exceeds it? Not fulfilled

Could you please find out whether COc1ccc(CC(=O)OCC(=O)c2ccc[nH]2)cc1 has solubility kinetic that meets 40 µg/mL or exceeds it? Fulfilled

Could you please find out whether O=c1[nH]c(-c2ccc(O)cc2)nc2scc(-c3cccs3)c12 has solubility kinetic that meets 40 µg/mL or exceeds it? Not fulfilled
